meta.source: ChEMBL document CHEMBL1154484

Attribute: log(1/C)
Assay: Cytotoxicity against mouse J774.1 cells
Type: cell-based

INSERT INTO measurements (compound, measurement) VALUES
  ('COc1ccc(C(=O)N[C@@H](c2ccccc2)[C@@H](O)C(=O)O[C@H]2C[C@@]3(O)[C@@H](OC(=O)c4ccccc4)[C@@H]4[C@]5(OC(C)=O)CO[C@@H]5C[C@H](O)[C@@]4(C)C(=O)[C@H](OC(C)=O)C(=C2C)C3(C)C)cc1OC', 7.21);

-- ask Quick one: log(1/C) for CC(=O)O[C@H]1C(=O)[C@@]2(C)[C@H]([C@H](OC(=O)c3ccccc3)[C@]3(O)C[C@H](OC(=O)[C@H](O)[C@@H](NC(=O)c4cccc5ccccc45)c4ccccc4)C(C)=C1C3(C)C)[C@]1(OC(C)=O)CO[C@@H]1C[C@@H]2O ?
-- reply 7.17

-- ask Then what about the compound CC(=O)O[C@H]1C(=O)[C@@]2(C)[C@H]([C@H](OC(=O)c3ccccc3)[C@]3(O)C[C@H](OC(=O)[C@H](O)[C@@H](NC(=O)c4ccccc4)c4ccccc4)C(C)=C1C3(C)C)[C@]1(OC(C)=O)CO[C@@H]1C[C@@H]2O [PACLITAXEL] ?
-- reply 7.48

-- ask Then what about the compound CC(=O)O[C@H]1C(=O)[C@@]2(C)[C@H]([C@H](OC(=O)c3ccccc3)[C@]3(O)C[C@H](OC(=O)[C@H](O)[C@@H](NC(=O)c4cccs4)c4ccccc4)C(C)=C1C3(C)C)[C@]1(OC(C)=O)CO[C@@H]1C[C@@H]2O ?
-- reply 8.7

----------
Assay: Cytotoxicity against mouse J7.DEF.3 cells
Format: cell-based
Attribute: log(1/C)
Please give only the number in your answer, with no unit.

INSERT INTO measurements (cpd_smiles, measured_metric, measurement) VALUES
  ('CC(=O)O[C@H]1C(=O)[C@@]2(C)[C@H]([C@H](OC(=O)c3ccccc3)[C@]3(O)C[C@H](OC(=O)[C@H](O)[C@@H](NC(=O)c4ccc(C)cc4)c4ccccc4)C(C)=C1C3(C)C)[C@]1(OC(C)=O)CO[C@@H]1C[C@@H]2O', 'log(1/C)', 7.82),
  ('CC(=O)O[C@H]1C(=O)[C@@]2(C)[C@H]([C@H](OC(=O)c3ccccc3)[C@]3(O)C[C@H](OC(=O)[C@H](O)[C@@H](NC(=O)c4ccc(C(C)(C)C)cc4)c4ccccc4)C(C)=C1C3(C)C)[C@]1(OC(C)=O)CO[C@@H]1C[C@@H]2O', 'log(1/C)', 7.6),
  ('CC(=O)O[C@H]1C(=O)[C@@]2(C)[C@H]([C@H](OC(=O)c3ccccc3)[C@]3(O)C[C@H](OC(=O)[C@H](O)[C@@H](NC(=O)/C=C/c4ccccc4)c4ccccc4)C(C)=C1C3(C)C)[C@]1(OC(C)=O)CO[C@@H]1C[C@@H]2O', 'log(1/C)', 7.11);

-- ask Quick one: log(1/C) for CCc1ccc(C(=O)N[C@@H](c2ccccc2)[C@@H](O)C(=O)O[C@H]2C[C@@]3(O)[C@@H](OC(=O)c4ccccc4)[C@@H]4[C@]5(OC(C)=O)CO[C@@H]5C[C@H](O)[C@@]4(C)C(=O)[C@H](OC(C)=O)C(=C2C)C3(C)C)cc1 ?
-- reply 7.85

----------
Test: Cytotoxicity against mouse J774.1 cells
Type: cell-based
Hi, to clarify the labels: condition met covers log(1/C) from 8 upward, condition not met covers anything below 8.

A selection of reference data follows.
INSERT INTO measurements (cpd_smiles, assigned_category) VALUES
  ('CC(=O)O[C@@]12CO[C@@H]1C[C@H](O)[C@@]1(C)C(=O)[C@H](O)C3=C(C)[C@@H](OC(=O)[C@H](O)[C@@H](NC(=O)OC(C)(C)C)c4ccccc4)C[C@@](O)([C@@H](OC(=O)c4ccccc4)[C@H]21)C3(C)C.O.O.O', 'condition met'),
  ('CC(=O)O[C@H]1C(=O)[C@@]2(C)[C@H]([C@H](OC(=O)c3ccccc3)[C@]3(O)C[C@H](OC(=O)[C@H](O)[C@@H](NC(=O)c4ccco4)c4ccccc4)C(C)=C1C3(C)C)[C@]1(OC(C)=O)CO[C@@H]1C[C@@H]2O', 'condition met');

-- ask Entry CCCc1ccc(C(=O)N[C@@H](c2ccccc2)[C@@H](O)C(=O)O[C@H]2C[C@@]3(O)[C@@H](OC(=O)c4ccccc4)[C@@H]4[C@]5(OC(C)=O)CO[C@@H]5C[C@H](O)[C@@]4(C)C(=O)[C@H](OC(C)=O)C(=C2C)C3(C)C)cc1 : is its log(1/C) no less than 8?
-- reply condition not met

-- ask Then what about the compound CC(=O)O[C@H]1C(=O)[C@@]2(C)[C@H]([C@H](OC(=O)c3ccccc3)[C@]3(O)C[C@H](OC(=O)[C@H](O)[C@@H](NC(=O)Cc4ccccc4)c4ccccc4)C(C)=C1C3(C)C)[C@]1(OC(C)=O)CO[C@@H]1C[C@@H]2O ?
-- reply condition not met

-- ask Then what about the compound COc1ccc(C(=O)N[C@@H](c2ccccc2)[C@@H](O)C(=O)O[C@H]2C[C@@]3(O)[C@@H](OC(=O)c4ccccc4)[C@@H]4[C@]5(OC(C)=O)CO[C@@H]5C[C@H](O)[C@@]4(C)C(=O)[C@H](OC(C)=O)C(=C2C)C3(C)C)cc1 ?
-- reply condition not met

-- ask Then what about the compound CC(=O)O[C@H]1C(=O)[C@@]2(C)[C@H]([C@H](OC(=O)c3ccccc3)[C@]3(O)C[C@H](OC(=O)[C@H](O)[C@@H](NC(=O)c4ccc(Cl)cc4)c4ccccc4)C(C)=C1C3(C)C)[C@]1(OC(C)=O)CO[C@@H]1C[C@@H]2O ?
-- reply condition not met
